Test system: UO-31 renal
assay-explanation: NCI-60 one-dose screen, 48 h
experimental-conditions: 10 µM unless noted
About 83,000 compounds went through this panel and 20% of them were active in at least one assay; those are over-represented in the sample as a whole. Active and inactive are the calls of the source. The calls were made as follows: active = growth percent below 10; inactive = the rest.
Outcomes: true for active, false for inactive

| compound | experimental-system | label |
| --- | --- | --- |
| CN=S(=O)(NC(=O)c1ccc(Cl)cc1Cl)c1ccc(Br)s1 (stereo not drawn) | UO-31 renal | false |
| CCSc1nnc(NC(=O)Cc2ccc(Cl)cc2)s1 | UO-31 renal | false |
| C=CCn1c(C)nc2ccc(Nc3nc(Nc4ccc(F)cc4)nc4ccccc34)cc21 | UO-31 renal | false |
| COc1cccc(-c2nc3sccn3c2-c2ccnc(NCCCNS(=O)(=O)c3ccc(F)cc3)n2)c1 | UO-31 renal | false |
| COc1ccc2c(c1)C=CC(C#N)N2C(=O)c1ccccc1 (stereo not drawn) | UO-31 renal | false |
| Cc1c(C(=O)NCc2ccccc2)[n+](=O)c2cc(F)ccc2n1[O-] | UO-31 renal | false |
| COc1cc2nc(N3CCC[C@@H](NC4=CC(=O)c5ccccc5C4=O)C3)nc(N)c2cc1OC | UO-31 renal | false |
| CS(=O)(=O)N(c1cc(-c2ccc3ncnc(Nc4cccc(Cl)c4)c3c2)cnc1Cl)S(C)(=O)=O | UO-31 renal | true |
| O=C1N=C(c2c(-c3[nH]c(=O)c4ccc(Br)cc4c3O)c(O)c3ccccc3c2O)C(=O)c2cc(Br)ccc21 | UO-31 renal | true |
| COc1cc(NS(C)(=O)=O)ccc1Nc1c2ccc([N+](=O)[O-])cc2nc2c(C)cccc12 | UO-31 renal | true |
| O=C(CNC(=O)c1cccc2ccccc12)Nc1ccccc1Oc1ccccc1 | UO-31 renal | false |
| COC(=O)[C@H]1[C@H](OC)[C@@H](OC(=O)/C=C/c2ccncc2)CC2CN3CCc4c([nH]c5cc(OC)ccc45)[C@@H]3C[C@@H]21 (stereo partly drawn) | UO-31 renal | false |
| O=c1oc2c([nH]c3ccc4ccccc4c32)c2ccccc12 | UO-31 renal | false |
| CCC1CCc2nc3sc(C(=O)Nc4cccc(C)c4)c(N)c3cc2C1 (stereo not drawn) | UO-31 renal | false |
| O=C1CCC/C=C\C[C@H]2C=CC(=O)/C2=C/C[C@H](C/C=C\CC(F)(F)F)O1 | UO-31 renal | true |
| C=CCc1cc(Cl)cc2c(OC(C)=O)c(C(C)=O)c(-c3ccccc3)nc12 | UO-31 renal | false |
| CC(C)(C)c1cc(-c2nc3ccc(N4CCN(CCO)CC4)cc3[nH]2)cc(C(C)(C)C)c1O | UO-31 renal | false |
| COC(=O)c1cc(-c2cccs2)c(C#N)c(N)c1C#N | UO-31 renal | false |
| Nc1c(C(=O)Nc2ccccc2)sc2nc3c(cc12)CCCCC3 | UO-31 renal | false |
| CCCCCCCCCCCCCCCCCCOc1cccc(CCOP(=O)(O)OCC[N+](C)(C)C)c1 | UO-31 renal | false |
| COc1cc(/C=C\c2cc(OC)c(OC)c(OC)c2)cc(N/C=C\C(=O)c2c[nH]c3ccccc23)c1OC | UO-31 renal | true |
| CCN(CC)c1cc(/C=C/c2ccc(OC)c(OC)c2)nc2cc(F)c(F)cc12 | UO-31 renal | false |
| NC(=O)NC(=O)/C=C/C(=O)OCCCl | UO-31 renal | false |
